Test system: HOP-62 NSCLC
protocol text: NCI tumour cell line growth inhibition, 48 h
parameter: TGI (µM)
Form entry: value (µM) — number only.

Reported TGI ( O=C1/C(=C/c2ccccc2[N+](=O)[O-])N=C(c2ccccc2)N1c1nc2ccccc2s1 ) = 72.2

Next:
Per the records, this compound ( CCCCCCCCCCCCOC1C(CNC(=O)C2OC3OC(C)(C)OC3C2NC(=O)CN2CCN(c3ccc(OC)cc3)CC2)OC2OC(C)(C)OC21 (centres undefined) ) has TGI equal to 20.5

###

System: UACC-62 melanoma
protocol text: NCI tumour cell line growth inhibition, 48 h; in the data active = GI50 below about 0.43 µM; inactive = the rest
Would you mind answering with one of these outcomes? t (active), f (inactive)

Example cases with answers are listed next.
Qu. Record lookup: outcome of this test for Oc1c(Cl)cc(Cl)c2ccc(Cn3cc(-c4ccc(C(F)(F)F)cc4)nn3)nc12 ?
Ans. f

Qu. Could you please tell me the result logged for O=C1c2ccccc2-c2c1c1ccccc1c(=O)n2CCCNCCn1c2c(c3ccccc3c1=O)C(=O)c1ccccc1-2 in this assay?
Ans. f

Qu. Name the outcome recorded for CC(=O)[CH-]C(=O)c1ccccc1.CC(=O)[CH-]C(=O)c1ccccc1.CC(=O)[CH-]C(=O)c1ccccc1.[Nd+3].[OH3+] in the assay.
Ans. f

Qu. State the result this test recorded for CCN(Cc1cccc(Cl)c1)c1ccc(CO)c(Cl)c1 .
Ans. t

Further cases:
Qu. Per the assay record, what outcome was assigned to CC(C)COc1nc2c(c(=O)n(C)c(=O)n2C)n1C ?
Ans. f

Qu. Assay outcome for CSc1nc2c(c(=O)n1C)CN(C1CCCCC1)C(=O)C(c1ccccc1)N2 (centres undefined) : what was it?
Ans. f
